Test system: HepG2 cells
protocol text: HepG2 cytotoxicity assay (Cell Titer Glo 2.0)
Format: cell-based, human
measurement setup: Homo sapiens, HepG2, 72 h
Exercise: for every item that follows, state its recorded IC50.
Kindly provide the numeric value in nM only, without the unit symbol.

Q) Look up and state reported IC50 for O=C(C#Cc1ccncc1)Nc1ccc2oc(-c3ccccn3)nc2c1
A) 1200

Q) Supply measured IC50 of Cc1ccnc(-c2nc3cc(NC(=O)C#Cc4ccncc4)ccc3o2)c1 in your reply.
A) 1600

Q) Look up IC50 of Cc1cccc(-c2nc3cc(NC(=O)C#Cc4ccncc4)ccc3o2)n1 and report it.
A) 1400

Q) Identify the reported IC50 for the following entry. Cc1cccnc1-c1nc2cc(NC(=O)C#Cc3ccncc3)ccc2o1
A) 1200

Q) // Input: Cc1ccc(-c2nc3cc(NC(=O)C#Cc4ccncc4)ccc3o2)nc1 . Output its IC50 only.
A) 1800

Q) Fill in reported IC50 for this entry: O=C(C#Cc1ccccc1)Nc1ccc2oc(-c3ccccn3)nc2c1
A) 9600

Entry source: paper doi:10.1101/2025.03.14.643303
